# test-details: Half life in rat at 10 mg/kg, po
# Type: ADME, organism-based
# Set-up: dose 10 mg/kg, route oral
# conditions: in vivo
outcome-measure: half-life (h)
Form entry: value (h) — number only.

-- ask Any idea what its half-life is? The compound is `CCCCC[C@H](O)/C=C/[C@H]1CCC(=O)N1CCc1ccc(C(=O)O)cc1`
-- reply 20.8

----------
# test-details: Drug distribution in rat at 10 mg/kg, iv
# Type: ADME, organism-based
# Set-up: dose 10 mg/kg, route intravenous
# conditions: in vivo, read-out: Drug uptake
outcome-measure: Vd (L/kg)
Form entry: value (L/kg) — number only.

-- ask Any idea what its Vd is? The molecule is `CCCCC[C@H](O)/C=C/[C@H]1CCC(=O)N1CCc1ccc(C(=O)O)cc1`
-- reply 42.4

----------
# measured-on: Prostaglandin E2 receptor EP4 subtype (Homo sapiens, UniProt P35408)
# Sequence (P35408 whole entry): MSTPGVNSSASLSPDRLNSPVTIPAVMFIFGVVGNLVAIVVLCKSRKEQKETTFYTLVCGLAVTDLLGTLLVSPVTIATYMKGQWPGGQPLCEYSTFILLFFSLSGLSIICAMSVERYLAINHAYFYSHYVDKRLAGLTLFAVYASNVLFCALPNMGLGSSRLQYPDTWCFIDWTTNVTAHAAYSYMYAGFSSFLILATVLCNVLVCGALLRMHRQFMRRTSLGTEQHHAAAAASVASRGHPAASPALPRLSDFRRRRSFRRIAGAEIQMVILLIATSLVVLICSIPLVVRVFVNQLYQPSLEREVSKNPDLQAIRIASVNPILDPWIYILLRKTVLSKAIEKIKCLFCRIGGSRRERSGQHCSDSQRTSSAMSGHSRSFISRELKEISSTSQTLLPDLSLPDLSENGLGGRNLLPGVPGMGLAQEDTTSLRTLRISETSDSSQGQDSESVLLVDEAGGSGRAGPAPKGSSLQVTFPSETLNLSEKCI
# test-details: Agonist activity at human EP4 receptor by cAMP assay
# Format: functional
outcome-measure: pEC50
pEC50 is a log-scale quantity: -log10 of the concentration expressed in molar.

-- ask Any idea what its pEC50 is? The compound is `CCCCC1([C@@H](O)/C=C/[C@H]2CCC(=O)N2CCc2ccc(C(=O)O)cc2)CCC1`
-- reply 9.52

-- ask Any idea what its pEC50 is? The compound is `O=C(O)c1ccc(CCN2C(=O)CC[C@@H]2/C=C/[C@@H](O)Cc2cccc(Cl)c2)cc1`
-- reply 10.52

-- ask Any idea what its pEC50 is? The compound is `O=C(O)c1ccc(CCN2C(=O)CC[C@@H]2/C=C/[C@@H](O)Cc2ccccc2)cc1`
-- reply 10.52

-- ask Any idea what its pEC50 is? The compound is `CCCCC[C@H](O)/C=C/[C@H]1CCC(=O)N1CCc1ccc(C(=O)O)cc1`
-- reply 10.70

-- ask Any idea what its pEC50 is? The compound is `CCCC[C@H](O)/C=C/[C@H]1CCC(=O)N1CCc1ccc(C(=O)O)cc1`
-- reply 10.40

-- ask Any idea what its pEC50 is? The compound is `CCCCC(C)(C)[C@H](O)/C=C/[C@H]1CCC(=O)N1CCc1ccc(C(=O)O)cc1`
-- reply 8.52

----------
# test-details: Tmax in rat at 10 mg/kg, iv
# Assay type: ADME, organism-based
# Set-up: dose 10 mg/kg, route intravenous
# conditions: in vivo
outcome-measure: Tmax (min)
Form entry: value (min) — number only.

-- ask Any idea what its Tmax is? The compound is `CCCCC[C@H](O)/C=C/[C@H]1CCC(=O)N1CCc1ccc(C(=O)O)cc1`
-- reply 4.98

----------
# measured-on: Prostaglandin E2 receptor EP2 subtype (Homo sapiens)
# Sequence (P43116 whole entry): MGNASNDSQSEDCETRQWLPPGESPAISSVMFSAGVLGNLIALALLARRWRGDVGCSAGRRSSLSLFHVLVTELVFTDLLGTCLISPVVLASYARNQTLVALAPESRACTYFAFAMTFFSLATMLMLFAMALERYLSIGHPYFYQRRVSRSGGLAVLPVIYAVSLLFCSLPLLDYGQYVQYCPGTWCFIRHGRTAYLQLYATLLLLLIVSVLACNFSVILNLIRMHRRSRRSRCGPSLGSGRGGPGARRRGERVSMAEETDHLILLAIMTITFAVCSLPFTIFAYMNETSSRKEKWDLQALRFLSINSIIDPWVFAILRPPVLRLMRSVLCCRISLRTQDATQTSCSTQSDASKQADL
# test-details: Agonist activity at human EP2 receptor by cAMP assay
pEC50: −log10 of the molar value.
Would you please tag the item Yes when its pEC50 is 7 or above, and No when it is below?

-- ask Check if pEC50 >= 7 (inclusive). Item: `CCCCC[C@H](O)/C=C/[C@H]1CCC(=O)N1CCc1ccc(C(=O)O)cc1`
-- reply Yes

-- ask Check if pEC50 >= 7 (inclusive). Item: `O=C(O)c1ccc(CCN2C(=O)CC[C@@H]2/C=C/[C@@H](O)Cc2ccccc2)cc1`
-- reply No

-- ask Check if pEC50 >= 7 (inclusive). Item: `O=C(O)c1ccc(CCN2C(=O)CC[C@@H]2/C=C/[C@@H](O)Cc2cccc(Cl)c2)cc1`
-- reply No

-- ask Check if pEC50 >= 7 (inclusive). Item: `CCCCC1([C@@H](O)/C=C/[C@H]2CCC(=O)N2CCc2ccc(C(=O)O)cc2)CCC1`
-- reply Yes

-- ask Check if pEC50 >= 7 (inclusive). Item: `CCCCC(C)(C)[C@H](O)/C=C/[C@H]1CCC(=O)N1CCc1ccc(C(=O)O)cc1`
-- reply Yes

Source: ChEMBL document CHEMBL1143179
